pKi: −log10 of the molar value.
Please find below pKi data on Coagulation factor X (Homo sapiens, UniProt P00742) compiled from the literature.
Label t when pKi is at or above 6; otherwise label f.

For orientation, consider the following solved cases.
Compound	System name	Category
COc1ccc(OC2CCCN(c3ccc(-c4ccccc4S(C)(=O)=O)cc3F)C2=O)cc1 (stereo not drawn)	Coagulation factor X (Homo sapiens, UniProt P00742)	t
COC(=O)CC1(C(=O)Nc2ccc(-c3cccc(C)c3)cc2)CC(c2cccc(C(=N)N)c2)=NO1 (stereo not drawn)	Coagulation factor X (Homo sapiens, UniProt P00742)	t
NCc1ccc(Cl)cc1CNC(=O)[C@@H]1CCCN1C(=O)[C@@H](CCc1cccc[n+]1[O-])NCC(=O)O	Coagulation factor X (Homo sapiens, UniProt P00742)	t
CCN(CC)Cc1ccccc1-c1ccc(N2CCc3c(C(F)(F)F)nn(-c4ccc5onc(N)c5c4)c3C2=O)cc1	Coagulation factor X (Homo sapiens, UniProt P00742)	t
N=C(N)c1cccc(CNC(=O)c2cc3cc(N)ccc3n2Cc2cccc(C(=N)N)c2)c1	Coagulation factor X (Homo sapiens, UniProt P00742)	t
O=C(Nc1cccc(OCc2ccc([N+](=O)[O-])cc2)c1)C1CCN(c2ccncc2)CC1	Coagulation factor X (Homo sapiens, UniProt P00742)	f
Cc1cc(C)cc(CCN(CC(=O)NC(CCCNC(=N)N)B(O)O)C(=O)CCc2ccccc2)c1 (stereo not drawn)	Coagulation factor X (Homo sapiens, UniProt P00742)	t
CC1CCN(C(=O)[C@H](Cc2cccc(C(=N)N)c2)NS(=O)(=O)c2c(C(C)C)cc(C(C)C)cc2C(C)C)CC1	Coagulation factor X (Homo sapiens, UniProt P00742)	f

Has "Cc1cn(-c2cccc(Oc3cc(C(=O)O)cc(Oc4cc(C(=N)N)ccc4O)n3)c2)cn1" a recorded pKi greater than or equal to 6?
t

Is it the case that O=C(CNC(=O)C(CCc1cccc[n+]1[O-])NS(=O)(=O)Cc1ccccc1)NCc1cc(Cl)ccc1Cl (stereo not drawn) has pKi reaching or exceeding 6?
t

Reported pKi reaches at least 6 for "CC1(C)C[C@@H](C(=O)NCc2ccc(C(=N)N)cc2)n2c1c(Cl)nc(NC1(CO)CCCC1)c2=O" ?
f

Confirm if pKi reported for the compound "CC(C)N1CCC(NC(=O)c2cc3ccccc3n2Cc2cc(-c3ccc(I)s3)on2)CC1" is 6 or above.
t

----------
Record: compiled Ki on Coagulation factor X (Homo sapiens) from multiple reports.
We label by threshold. Values of Ki strictly beneath 200 nM are TRUE. Values of 200 nM and up are FALSE.

Examples with answers:
Compound	Category
CN1CC(C)(COc2ccc(C(=N)N)cc2)Oc2cc(N(Cc3cccc(F)c3)C(=O)C(=O)O)ccc21 (configuration not stated)	FALSE
COc1ccc(-n2nc(Cn3ccnn3)c3c2C(=O)N(c2ccc(-c4ccccc4CN4CC[C@@H](O)C4)cc2)CC3)cc1	TRUE
O=C(Nc1ccc(Cl)cc1)c1cccc(Cl)c1NC(=O)c1sc2ccccc2c1Cl	TRUE
Cc1ccc(NC(=O)c2sccc2Cl)c(C(=O)Nc2ccc(Cl)cc2)c1	TRUE
N=C(N)c1cccc(CN2CC[C@H](NS(=O)(=O)c3ccc(-c4ccon4)s3)C2=O)c1	TRUE
CN(C)Cc1ccccc1NC(=O)OCC(Oc1cc(F)cc2sc(C(=N)N)cc12)c1ccccc1 (configuration not stated)	FALSE

Given "COC(=O)[C@H](Cc1cccc(C(=N)N)c1)[C@@H](C)NC(=O)c1ccc(-c2ccccn2)cc1" , is recorded Ki strictly lower than 200 nM?
TRUE
